experiment: Plasma protein binding, rapid equilibrium dialysis; type: in vitro ADME, mouse (strain CD1); settings: CD1, mouse, pH 7.4
measured_endpoint: fraction unbound at 6 h, 2 μM
The response must contain the number and no unit.

Look up fraction unbound at 6 h, 2 μM for this molecule: CC(=O)N1CCC(C(=O)N2CCN3C(=O)c4cc(-c5ccccc5)ccc4NC(=O)C3C2)CC1 (stereo not shown)
0.294

* * *

test: Single-dose pharmacokinetics in mice; type: in vivo, male CD1 mice; details: male, CD1, mouse, plasma, po, 100 mg/kg
measured_endpoint: AUC(0-t) (ng·h/mL)
// units = ng·h/mL; emit number, no label

Look up AUC(0-t) for this compound: CC(=O)N1CCC(C(=O)N2CCN3C(=O)c4cc(-c5ccccc5)ccc4NC(=O)C3C2)CC1 (stereo not shown)
2380
